- Read-out: Collagen III, COL3A1 (gene 1281)
- methodSummary: BSK_hDFCGF_CollagenIII: BioMAP Diversity Plus: hDFCGF Assay for Collagen III Biomarker Activity (AID 2283056)
- conditionDescription: primary human foreskin fibroblasts; actives raise or lower the signal
The source made the active and inactive calls. The calls were made as follows: active = hit-call score of the fitted dose curve at least 0.9, where 1 is the maximum; inactive = score below 0.9.
reportedProperty: AC50

Record excerpt, results attached:
compound	recordedResult
COP(=O)(OC)OC(Br)C(Cl)(Cl)Br (stereo not drawn)	31.5 µM (active)
Cc1nn(-c2cc(NS(C)(=O)=O)c(Cl)cc2Cl)c(=O)n1C(F)F	inactive
CCOP(=S)(OCC)Oc1ccc2c(C)c(Cl)c(=O)oc2c1	20 µM (active)
CCCSP(=O)(OCC)Oc1ccc(Br)cc1Cl (stereo not drawn)	20 µM (active)
CC1(C(=O)Nc2ccc(O)c(Cl)c2Cl)CCCCC1	inactive
COP(=O)(NC(C)=O)SC (stereo not drawn)	inactive
CC(C)N(C(=O)SCC(Cl)=C(Cl)Cl)C(C)C	30.5 µM (active)
CON=C(C(=O)OC)c1ccccc1CON=C(C)c1cccc(C(F)(F)F)c1	1.47 µM (active)

Please report the recorded AC50 for COP(=O)(OC)C(O)C(Cl)(Cl)Cl (stereo not drawn) . inactive

Same for CC(Oc1cccc(Cl)c1)C(=O)O (stereo not drawn) inactive

Same for CCOC(=O)CC(SP(=O)(OC)OC)C(=O)OCC (stereo not drawn) inactive

Same for CCOP(=O)(OCC)Oc1cc(C)nc(C(C)C)n1 31.7 µM (active)

Same for O=c1ccc(=O)[nH][nH]1 inactive

* * *

- Read-out: CYP3A5 (gene 1577)
- methodSummary: LTEA_HepaRG_CYP3A5: Life Technologies and Expression Analysis (LTEA) Assay for CYP3A5 using HepaRG (AID 2283493)
- conditionDescription: mRNA level, 48 h; actives raise or lower the signal
Calls of active or inactive are those of the source. Rule for the calls: active = hit-call score of the fitted dose curve at least 0.9, where 1 is the maximum; inactive = score below 0.9.
The reply should be one of these categories: active, inactive

Completed entries (count: 3):
compound	classification
CC(COc1ccc(Oc2ccccc2)cc1)Oc1ccccn1 (stereo not drawn)	inactive
CC(C1CC1)C(O)(Cn1cncn1)c1ccc(Cl)cc1 (stereo not drawn)	inactive
CCOP(=S)(OCC)Oc1ccc2c(C)c(Cl)c(=O)oc2c1	inactive

How did this test come out for C[N+]1(C)CCCCC1 ? inactive

Same for N#CSCSC#N active

Same for CCCSP(=O)(OCC)SCCC inactive

Same for Nc1c(Cl)cc([N+](=O)[O-])cc1Cl active

Same for CCOC(=O)COc1cc(-c2nn(C)c(OC(F)F)c2Cl)c(F)cc1Cl inactive

Same for CCCOCC(=Nc1ccc(Cl)cc1C(F)(F)F)n1ccnc1 active

Same for CCCCN(CC)c1c([N+](=O)[O-])cc(C(F)(F)F)cc1[N+](=O)[O-] inactive

Same for COc1cccc(C(=O)NN(C(=O)c2cc(C)cc(C)c2)C(C)(C)C)c1C inactive

Same for CNC(=O)Oc1cccc2c1OC(C)(C)O2 inactive

Same for CCOP(=S)(OCC)OC(Cl)C(Cl)(Cl)Cl (stereo not drawn) inactive

* * *

- methodSummary: ATG_E_Box_CIS: Attagene CIS-FACTORIAL HepG2 Assay for human Enhancer Box (E-box) (AID 2282936)
- conditionDescription: HepG2 E-box cis-reporter transcription, actives raise or lower the signal
Active and inactive are the calls of the source. How the source made its calls: active means hit-call score of the fitted dose curve at least 0.9, where 1 is the maximum; inactive means score below 0.9.
The reply should be one of these categories: active, inactive

How did this test come out for CSc1nc(NC(C)C)nc(NC(C)C)n1 ? inactive

Same for CCOP(=O)(OCC)Oc1cc(C)nc(C(C)C)n1 inactive

Same for CCCSP(=O)(OCC)Oc1ccc(Br)cc1Cl (stereo not drawn) inactive
